Each item that follows carries a reported EC50.
Target: human delta opioid receptor (Homo sapiens, UniProt P41143)
Construct: purchased Receptor Biology, Inc. (Baltimore, Md.); host or cells: CHO cells expressing the human delta receptor (membranes)
Sequence (P41143 whole entry): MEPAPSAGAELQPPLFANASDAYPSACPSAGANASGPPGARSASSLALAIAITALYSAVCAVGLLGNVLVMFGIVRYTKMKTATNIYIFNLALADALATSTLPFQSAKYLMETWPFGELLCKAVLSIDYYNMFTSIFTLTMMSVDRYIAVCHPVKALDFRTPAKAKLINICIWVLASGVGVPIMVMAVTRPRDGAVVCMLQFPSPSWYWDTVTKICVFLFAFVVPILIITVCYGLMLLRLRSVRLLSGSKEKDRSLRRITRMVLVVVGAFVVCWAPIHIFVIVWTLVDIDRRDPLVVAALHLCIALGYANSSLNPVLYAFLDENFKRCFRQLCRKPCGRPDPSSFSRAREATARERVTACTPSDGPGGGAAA
Assay: [35S]GTPγS binding assay in CHO-hδ cell membranes
Format: biochemical
Conditions: hDOR GTPγS EC50, human delta opioid receptor GTPγS functional assay
Method: CHO-hδ cell membranes are purchased from Receptor Biology, Inc. (Baltimore, Md.). 10 mg/ml of membrane protein is suspended in 10 mM TRIS-HC pH 7.2, 2 mM EDTA, 10% sucrose. Membranes are maintained at 4-8° C. […] The pellet membranes (20 μg/ml) are preincubated with SPA (10 mg/ml) at 25° C. for 45 min in the assay buffer. […] The basal binding is tested in the absence of agonists and non-specific binding is tested in the presence of 10 μM unlabeled GTP S. The data are analyzed on a Top counter.
I only need the number, in µM, no unit after it.

- CCN(CC)C(=O)c1ccc2c(c1)Oc1ccccc1C2=C1CC2CCC(C1)N2CCOC: 0.0949
- CCN(CC)C(=O)c1ccc2c(c1)Oc1ccccc1C2=C1CCN(Cc2ccccn2)CC1: 0.0316
- CCN(CC)C(=O)c1ccc2c(c1)Sc1ccccc1C2=C1CC2CCC(C1)N2CCO: 0.0628

Item CCN(CC)C(=O)c1ccc2c(c1)Oc1ccccc1C2=C1CC2CCC(C1)N2Cc1ccoc1 has what recorded EC50? 0.00139

Item CCN(CC)C(=O)c1ccc2c(c1)Oc1ccccc1C2=C1CCN(C=Nc2ccccc2)CC1 has what recorded EC50? 0.0425

Item CCN(CC)C(=O)c1ccc2c(c1)Oc1ccccc1C2=C1CC2CCC(C1)N2 (single isomer, unassigned) [Compound 52] has what recorded EC50? 0.00444

Item CCN(CC)C(=O)c1ccc2c(c1)Oc1ccccc1C2=C1CCN(C=S)CC1 has what recorded EC50? 0.921

Item CCN(CC)C(=O)c1ccc2c(c1)Oc1ccccc1C2=C1CC2CCC(C1)N2 (single isomer, unassigned) [Compound 53] has what recorded EC50? 0.257

###

Each item that follows carries a reported pKi.
molecular target: Rat brain mu opioid receptor (Rattus norvegicus); construct: from tissue; host or cells: forebrain of male Sprague Dawley rats; test: Rat brain mu opioid receptor binding assay ([3H]DAMGO); conditions: rMOR Ki
Please express pKi as -log10 of the molar concentration.

Use these answered entries as a reference point.
- CCN(CC)C(=O)c1ccc2c(c1)Oc1ccc(-c3ccncc3)cc1C2=C1CC2CCC(C1)N2 [Compound 85]: 4.97
- CCNC(=O)c1ccc2c(c1)Sc1ccccc1C2=C1CC2CCC(C1)N2 [Compound 80]: 6.33

Proceed to the following item.
Item C=CCN1C2CCC1CC(=C1c3ccccc3Oc3cc(C(=O)N(CC)CC)ccc31)C2 [Compound 38] has what recorded pKi? 5.26

###

target: Rat brain mu opioid receptor (Rattus norvegicus, UniProt P33535); construct: from tissue; host or cells: forebrain of male Sprague Dawley rats; test: Rat brain mu opioid receptor binding assay ([3H]DAMGO); conditions: read-out: rMOR Ki
Sequence (P33535 whole entry): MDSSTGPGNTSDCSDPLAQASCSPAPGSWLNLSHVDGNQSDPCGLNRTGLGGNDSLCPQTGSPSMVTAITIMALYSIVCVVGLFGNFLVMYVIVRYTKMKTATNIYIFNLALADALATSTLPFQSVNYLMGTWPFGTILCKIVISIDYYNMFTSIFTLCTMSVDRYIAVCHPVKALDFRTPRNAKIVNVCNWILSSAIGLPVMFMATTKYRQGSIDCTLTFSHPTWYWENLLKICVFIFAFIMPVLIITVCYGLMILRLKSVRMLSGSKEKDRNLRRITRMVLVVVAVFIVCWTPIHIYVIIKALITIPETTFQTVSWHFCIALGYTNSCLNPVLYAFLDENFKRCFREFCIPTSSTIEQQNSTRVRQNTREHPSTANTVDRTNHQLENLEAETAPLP
reported.endpoint: pKi
Please express pKi as -log10 of the molar concentration.

Use these answered entries as a reference point.
• C=CCN1CCC(=C2c3ccccc3COc3cc(C(=O)N(CC)CC)ccc32)CC1 = 5.10
• CCN(CC)C(=O)c1ccc2c(c1)OCc1ccccc1C2=C1CCN(CCc2ccccc2)CC1 = 5.89

Item CCN(CC)C(=O)c1ccc2c(c1)Oc1c(cccc1-c1cnc3ccccc3c1)C2=C1CC2CCC(C1)N2 has what recorded pKi? 5.13

###

biological target: Rat brain mu opioid receptor (Rattus norvegicus, UniProt P33535); construct: from tissue; host or cells: forebrain of male Sprague Dawley rats; test: Rat brain mu opioid receptor binding assay ([3H]DAMGO); settings: rMOR Ki
Each item that follows carries a reported pKi.
Please express pKi as -log10 of the molar concentration.

Use these answered entries as a reference point.
• CCN(CC)C(=O)c1ccc2c(c1)Oc1c(Br)cccc1C2=C1CC2CCC(C1)N2 = 6.17
• CNC(=O)c1ccc2c(c1)Oc1ccccc1C2=C1CC2CCC(C1)N2 = 6.15
• CCN(CC)C(=O)c1ccc2c(c1)Oc1c(cccc1-c1ccccc1)C2=C1CC2CCC(C1)N2 = 5.19

Proceed to the following item.
Item CCN(CC)C(=O)c1ccc2c(c1)Oc1ccc(-c3ccoc3)cc1C2=C1CC2CCC(C1)N2 has what recorded pKi? 4.90

###

Each item that follows carries a reported inhibition at 10 µM.
biological target: human mu opioid receptor (Homo sapiens, UniProt P35372); construct: purchased Receptor Biology, Inc. (Baltimore, Md.); host or cells: CHO cells expressing the human mu receptor (membranes); test: [35S]GTPγS binding assay in CHO-hμ cell membranes; type: biochemical; conditions: inhibition relative to 1 uM DAMGO, read-out: hMOR GTPγS % I @10 μM
Sequence (P35372 whole entry): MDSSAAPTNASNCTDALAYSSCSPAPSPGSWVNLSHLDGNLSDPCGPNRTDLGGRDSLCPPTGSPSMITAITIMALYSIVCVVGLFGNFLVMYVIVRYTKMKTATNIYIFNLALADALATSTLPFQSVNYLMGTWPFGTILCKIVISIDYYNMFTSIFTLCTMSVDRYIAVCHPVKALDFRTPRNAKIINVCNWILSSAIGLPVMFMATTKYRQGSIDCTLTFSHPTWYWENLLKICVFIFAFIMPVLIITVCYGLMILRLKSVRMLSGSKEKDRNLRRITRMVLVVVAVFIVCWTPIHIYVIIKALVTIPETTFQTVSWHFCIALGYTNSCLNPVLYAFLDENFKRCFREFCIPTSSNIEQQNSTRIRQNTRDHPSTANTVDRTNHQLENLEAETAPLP
I only need the number, in %, no unit after it.

Item CCN(CC)C(=O)c1ccc2c(c1)Oc1ccccc1C2=C1CCN(Cc2ccccn2)CC1 has what recorded inhibition at 10 µM? 34

Item CCN(CC)C(=O)c1ccc2c(c1)Oc1ccccc1C2=C1CCN(CCc2ccccc2)CC1 has what recorded inhibition at 10 µM? 2

Item CCN(CC)C(=O)c1ccc2c(c1)Oc1ccccc1C2=C1CCNCC1 has what recorded inhibition at 10 µM? 1

Item CCN(CC)C(=O)c1ccc2c(c1)OCc1ccccc1C2=C1CCN(Cc2ccc3c(c2)OCO3)CC1 has what recorded inhibition at 10 µM? 9

Item CCN(CC)C(=O)c1ccc2c(c1)Oc1ccccc1C2=C1CCN(CCO)CC1 has what recorded inhibition at 10 µM? 17

Item CCN(CC)C(=O)c1ccc2c(c1)Oc1ccccc1C2=C1CCN(C(=N)N)CC1 has what recorded inhibition at 10 µM? 14

Item CCN(CC)C(=O)c1ccc2c(c1)Sc1ccccc1C2=C1CC2CCC(C1)N2Cc1ccc2c(c1)OCO2 has what recorded inhibition at 10 µM? 59.2

###

target: Rat brain delta opioid receptor (Rattus norvegicus); construct: from tissue; host or cells: rat brain; experiment: Rat brain delta opioid receptor binding; conditions: read-out: rDOR Ki
reported.endpoint: pKi
Please express pKi as -log10 of the molar concentration.

- CCNC(=O)c1ccc2c(c1)OCc1ccccc1C2=C1CCN(Cc2cccs2)CC1 [Compound 13]: 6.84

Item CCNC(=O)c1ccc2c(c1)Oc1ccccc1C2=C1CC2CCC(C1)N2 (single isomer, unassigned) [Compound 56] has what recorded pKi? 6.79

Item CCNC(=O)c1ccc2c(c1)OCc1ccccc1C2=C1CC2CCC(C1)N2CCc1ccccc1 [Compound 26] has what recorded pKi? 5.26

###

target: Rat brain delta opioid receptor (Rattus norvegicus, UniProt P33533); construct: from tissue; host or cells: rat brain; assay: Rat brain delta opioid receptor binding; conditions: rDOR Ki
Sequence (P33533 whole entry): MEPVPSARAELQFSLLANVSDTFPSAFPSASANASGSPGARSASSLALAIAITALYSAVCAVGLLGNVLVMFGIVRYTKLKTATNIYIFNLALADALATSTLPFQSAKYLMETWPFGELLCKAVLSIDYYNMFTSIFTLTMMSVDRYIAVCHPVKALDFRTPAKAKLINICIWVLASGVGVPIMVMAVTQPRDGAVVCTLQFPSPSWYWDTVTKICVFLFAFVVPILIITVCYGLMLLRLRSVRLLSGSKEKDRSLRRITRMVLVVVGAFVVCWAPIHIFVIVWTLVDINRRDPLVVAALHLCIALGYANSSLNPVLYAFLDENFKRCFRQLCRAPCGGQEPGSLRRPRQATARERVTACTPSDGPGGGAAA
reported.endpoint: log10 Ki (log10 of the value in nM)
// do not treat as linear: log10 of Ki, unit nM

Use these answered entries as a reference point.
• CCN(CC)C(=O)c1ccc2c(c1)Oc1ccccc1C2=C1CC2CCC(C1)N2Cc1ccccn1 [Compound 44] = -0.82
• CCN(CC)C(=O)c1ccc2c(c1)Oc1ccc(F)cc1C2=C1CC2CCC(C1)N2 [Compound 69] = 0.70
• CCNC(=O)c1ccc2c(c1)Sc1ccccc1C2=C1CC2CCC(C1)N2 [Compound 80] = 2.41
• CCN(CC)C(=O)c1ccc2c(c1)Oc1c(cccc1-c1cccnc1)C2=C1CC2CCC(C1)N2 [Compound 101] = 0.96
• CCNC(=O)c1ccc2c(c1)Sc1ccccc1C2=C1CC2CCC(C1)N2 [Compound 81] = 1.89
• NC(=O)c1ccc2c(c1)Oc1ccccc1C2=C1CC2CCC(C1)N2 [Compound 65] = 2.29

Item CCN(CC)C(=O)c1ccc2c(c1)Sc1ccccc1C2=C1CC2CCC(C1)N2 [Compound 48] has what recorded log10 Ki? -0.05

###

molecular target: Rat brain mu opioid receptor (Rattus norvegicus, UniProt P33535); construct: from tissue; host or cells: forebrain of male Sprague Dawley rats; assay: Rat brain mu opioid receptor binding assay ([3H]DAMGO); conditions: rMOR Ki
pKi: −log10 of the molar value.
Each item that follows carries a reported pKi.

Use these answered entries as a reference point.
* CCN(CC)C(=O)c1ccc2c(c1)Sc1ccccc1C2=C1CC2CCC(C1)N2CCCSC | < 7.00
* CCN(CC)C(=O)c1ccc2c(c1)Oc1ccccc1C2=C1CC2CCC(C1)N2CCSC | < 5.00

Proceed to the following item.
Item CCN(CC)C(=O)c1ccc2c(c1)Sc1ccccc1C2=C1CC2CCC(C1)N2CCO has what recorded pKi? < 7.00

###

molecular target: Rat brain mu opioid receptor (Rattus norvegicus, UniProt P33535); construct: from tissue; host or cells: forebrain of male Sprague Dawley rats; test: Rat brain mu opioid receptor binding assay ([3H]DAMGO); conditions: rMOR Ki
reported.endpoint: Ki

* CCN(CC)C(=O)c1ccc2c(c1)Oc1ccccc1C2=C1CCN(C=S)CC1 | > 10 µM
* CCN(CC)C(=O)c1ccc2c(c1)Oc1ccccc1C2=C1CC2CCC(C1)N2 (single isomer, unassigned) [Compound 52] | > 0.1 µM

Write down the reported Ki of CCN(CC)C(=O)c1ccc2c(c1)Oc1ccccc1C2=C1CCN(C=Nc2ccccc2)CC1 , test system: Rat brain mu opioid receptor (Rattus norvegicus, UniProt P33535). > 10 µM
